Test system: LOX IMVI melanoma
Assay: NCI tumour cell line growth inhibition, 48 h; in the data active means GI50 below about 0.43 µM; inactive means the rest
Possible outcomes: yes (1) for active, no (0) for inactive

1. Cc1cc(Nc2cc(N3CCN(C)CC3)nc(/C=C/c3ccccc3)n2)n[nH]1 : yes (1)
2. Cc1cc(-c2cc(O)ccc2Cl)cc2nnc(Nc3ccc(OCCN4CCCC4)cc3)nc12 : no (0)
3. Cn1c2c(c3c(Cl)nncc31)Cc1ccccc1-2 : no (0)
4. COc1cccc(Nc2nc3ccccc3c3occc23)c1 : no (0)
5. O=C(NCC1CCCO1)c1ccc(NC2=C(Cl)C(=O)N(Cc3ccccc3)C2=O)cc1 (stereo unspecified) : no (0)
6. Oc1c(Cl)cc(Cl)c2ccc(Cn3cc(-c4ccc(C(F)(F)F)cc4)nn3)nc12 : yes (1)
